assay: NCI Yeast Anticancer Drug Screen. Data for the rad50 strain (AID 155);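 note: 0% = growth of vehicle-only cultures of the same strain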; conditions: S. cerevisiae rad50 strain growth inhibition; at 5.0 µM (retest, dose inferred, filed as 0.5)
This is part of a sample that, as a whole, favours compounds with a hit. Of some 79,000 tested, about 15% had one in any assay. The source made the active and inactive calls. Cut-off read from the data, not from the text of the source: active = growth inhibition above about 70%; inactive = the rest.
Labels: t (active), f (inactive)

molecule | classification
O=C/C=C/c1cc([N+](=O)[O-])ccc1Cl | f
O=C1C(=O)c2cc(Br)cc([N+](=O)[O-])c2-c2ccc(Br)cc21 | f
CCOCCOC(=O)C(C)O (centres undefined) | f
N=Nc1c(OC(=O)Nc2cccc(Cl)c2)[nH]c2ccccc12 | f
Oc1ccc(Cc2cccc(Br)c2)c(O)c1 | f
COc1ccc(/C=C2\NC(=O)NC2=O)cc1 | f
O=C(Nc1ccc(/C=C/c2ccc(NC(=O)c3cc(S(=O)(=O)O)c4cccnc4c3O)cc2S(=O)(=O)O)c(S(=O)(=O)O)c1)c1cc(S(=O)(=O)O)c2cccnc2c1O | f
O=C(/C=C/c1ccc2c(c1)OCO2)c1ccc(O)cc1 | f
O=C1C=CC(=O)c2ccc(=O)ccc21 | f
O=C1C=CC2C(=O)c3ccccc3C(=O)C2=C1 (centres undefined) | f
O=C(NNc1nc(-c2ccccc2)cs1)C(F)(F)F | t
C[C@@]12C[C@@H](Br)[C@H](Br)C[C@]1(C)O2 | f
O=[N+]([O-])c1cc(I)cc(/C=N/NS(=O)(=O)c2ccc(F)cc2)c1O | f
CC(=O)Oc1cccc2c(C(=O)CCl)ccnc12 | t
C/C=C\c1cc2c(cc1CC#N)OCO2 | f
COc1cc(C(c2cc3c(cc2O)OCO3)N2CCOCC2)ccc1O (centres undefined) | f
Cc1cc(C=Nc2ccccc2)c(O)c2ncccc12 | f
O=C1C(=O)c2ccccc2C=C1C1CCCCC1 | f
COc1ccc2c(c1)OC(OC)(c1ccccc1)C(O)(OC)C2=O (centres undefined) | f
O=C(Nc1ccc(Cl)cc1)NS(=O)(=O)c1ccc2c(c1)CCC2 | f
CCOC(=O)C1=C(c2ccccc2)c2ccccc2OC1C(=O)O (centres undefined) | f
COc1ccccc1C(=O)c1c(C(=O)O)ccc2ccccc12 | f
Cn1c2nc(-[n+]3ccc4ccccc4c3)nc-2c([O-])n(C)c1=O | f
O=C(O)c1nnsc1-c1ccc(-c2snnc2C(=O)O)cc1 | f

====

experiment: NCI Yeast Anticancer Drug Screen. Data for the cln2 rad14 strain (AID 165);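 note: 0% = growth equal to vehicle treated cultures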; conditions: S. cerevisiae cln2 rad14 strain, at 5.0 µM (retest, dose inferred, filed as 0.5), hits give high values
About 79,000 compounds went through this panel and 15% of them were active in at least one assay; those are over-represented in the sample as a whole.

compound | growth inhibition, %
FC(F)(F)c1ccc(-c2ccc(OCCN3CCCC3)cc2)cc1 | 28
CC(=O)CC1CCC(=O)/C=C/C(=O)OC(CC(C)=O)CCC(=O)/C=C/C(=O)O1 (centres undefined) | 5
Clc1ccc2c(Cl)c3c(nc2c1)CCCC3 | 0
CC(=O)OCC1OC(Sc2ccc3ccccc3c2)C(OC(C)=O)C(OC(C)=O)C1OC(C)=O (centres undefined) | 1
CC(=O)Oc1cccc2c(C(=O)CCl)ccnc12 | 15
Nc1nc(-c2ccc(Cl)cc2)cs1 | -44
COc1cccc(/C=N/N(C)C)c1O | 0
C/C=C/C1=C(Cl)C(=O)[C@@H](Cl)[C@@]1(O)C(=O)OC | 21
Nc1ccc(S(=O)(=O)Nc2ccccc2)cc1 | 0
NC(=S)c1cccc(OCCCOc2ccccc2)c1 | -8
O=C(O)c1cc(C(=O)O)c(C(=O)O)cc1C(=O)O.[NH-]C1CCCC1.[NH-]C1CCCC1.[NH-]C1CCCC1.[NH-]C1CCCC1.[Pt+2].[Pt+2] | 0
O=C(O)c1nc2cc(C(F)(F)F)ccc2nc1Nc1ccc(Cl)c(Cl)c1 | -7
O=C(OCc1ccccc1)c1ccccc1Cl | 4
CC1Cc2cc(O)c(O)cc2-c2cc(O)c(O)cc2CC1C (centres undefined) | 7
Cc1cccc(-c2nnc(-c3cccc(C)c3)o2)c1 | 53
c1ccc2cc3c(ccc4cccc[n+]43)cc2c1 | 30
OC(CCN1CCOCC1)C1c2ccccc2Cc2ccccc21 (centres undefined) | 1
CCCCCCCCCCCCCCSC(=N)N | 41
OCc1cc2c([nH]c3ccccc32)c(C(O)CO)n1 (centres undefined) | 0
N=C(N)SCc1nc(-c2ccc(Cl)cc2)no1 | 0
N#Cc1c(-c2ccc(Cl)cc2)c2c(n(C3OC(CO)C(O)C(O)C3O)c1=S)CCCC2 (centres undefined) | 3
N#CSc1ccc(O)cc1 | 3
O=S(=O)(NC1CCCCC1)c1ccc2c(c1)OCCOCCOCCOCCO2 | -7
O=C(O)c1ccccc1N=N/C(=N\Nc1cc(S(=O)(=O)O)ccc1O)c1ccccc1 | -3
